Target: Proteinase-activated receptor 4 (Homo sapiens)
Sequence (whole entry): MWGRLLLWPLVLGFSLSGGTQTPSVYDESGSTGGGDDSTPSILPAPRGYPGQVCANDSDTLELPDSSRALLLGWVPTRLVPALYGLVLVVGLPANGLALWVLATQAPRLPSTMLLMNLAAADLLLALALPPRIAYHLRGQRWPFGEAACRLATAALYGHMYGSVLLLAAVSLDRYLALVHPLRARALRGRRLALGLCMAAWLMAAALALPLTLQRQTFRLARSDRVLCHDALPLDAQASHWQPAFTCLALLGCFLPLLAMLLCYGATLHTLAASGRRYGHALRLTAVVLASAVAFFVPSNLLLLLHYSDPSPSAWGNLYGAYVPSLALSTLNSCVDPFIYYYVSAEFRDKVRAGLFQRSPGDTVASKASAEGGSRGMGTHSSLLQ
Assay: Antagonist activity at PAR4 in human platelet rich plasma assessed as inhibition of gamma-PAR4 agonist peptide (AYPGKF-NH2)-induced platelet aggregation at 200 nM preincubated for 5 mins followed by peptide addition and measured after 5 mins by aggregometer relative to control
Format: cell-based
Conditions: filed as antagonist, time 10.0 min
Endpoint: inhibition (%)
Write the answer as a number in %, unit excluded.

Query block: # input compound: "COc1cc(Cl)c2nc(-c3cc(C)cc4cncnc34)sc2c1" ; wanted: its inhibition
Result block: 82.3

Query block: Another compound to look at: "COc1cc(F)c2nc(-c3cc(C)cc4nc(OC)ncc34)sc2c1"
Result block: 78.8

Query block: Another compound to look at: "CNc1ncc2c(-c3nc4c(Cl)cc(OC)cc4s3)cc(C)cc2n1"
Result block: 58.7

Query block: Another compound to look at: "COc1cc(F)c2nc(-c3cc(C)cc4cnc(OC)nc34)sc2c1"
Result block: 89.6

Query block: Another compound to look at: "COc1cc(Cl)c2nc(-c3cc(C)cc4cnc(OC)nc34)sc2c1"
Result block: 86.4

Query block: Another compound to look at: "COc1ncc2c(-c3nc4cc(F)c(OC)cc4s3)cc(C)cc2n1"
Result block: 88.3

Query block: Another compound to look at: "COCc1ncc2c(-c3nc4cc(F)c(OCCOC(=O)Nc5ccc(C(=O)N6CCOCC6)cc5)cc4s3)cc(C)cc2n1"
Result block: 67.1

Query block: Another compound to look at: "COc1ncc2c(-c3nc4cc(F)c5c(c4s3)C[C@@H](COC(=O)Nc3ccc(C(=O)N4CCOCC4)cc3)O5)cc(C)cc2n1"
Result block: 61.2
